Format: in vivo, BALB/c mice
Settings: BALB/c, mouse, draining lymph node, iv, 20 mg/kg
READOUT_NAME: AUC(0-inf) (ng·h/mL)
# value in ng·h/mL; strip the unit string

Field request: AUC(0-inf) | item: CNCc1ccc(-c2cc(-c3nc(-c4ccc(S(=O)(=O)C(C)C)cc4)cnc3N)on2)cc1 [berzosertib]
87000

* * *

Test: Dose linearity study: single IV dose PK, noncompartmental analysis
Format: in vivo, female BALB/c mice
Conditions: female, BALB/c, mouse, plasma, iv, 60 mg/kg
READOUT_NAME: Vd

Field request: Vd | item: CNCc1ccc(-c2cc(-c3nc(-c4ccc(S(=O)(=O)C(C)C)cc4)cnc3N)on2)cc1
25.6 L/kg

* * *

Assay: Dose linearity study: single IV dose PK, noncompartmental analysis
Assay type: in vivo, female BALB/c mice
Conditions: female, BALB/c, mouse, plasma, iv, 2 mg/kg
READOUT_NAME: Cmax (ng/mL)
# value in ng/mL; strip the unit string

Field request: Cmax | item: CNCc1ccc(-c2cc(-c3nc(-c4ccc(S(=O)(=O)C(C)C)cc4)cnc3N)on2)cc1
1480

* * *

Experiment: Dose linearity study: single IV dose PK, noncompartmental analysis
Type: in vivo, female BALB/c mice
Details: female, BALB/c, mouse, plasma, iv, 6 mg/kg
READOUT_NAME: Tmax (min)
# value in min; strip the unit string

Field request: Tmax | item: CNCc1ccc(-c2cc(-c3nc(-c4ccc(S(=O)(=O)C(C)C)cc4)cnc3N)on2)cc1 [berzosertib]
5

* * *

Assay: Dose linearity study: single IV dose PK, noncompartmental analysis
Format: in vivo, female BALB/c mice
Settings: female, BALB/c, mouse, plasma, iv, 20 mg/kg, AUC0-t; 20 mg/kg IV
READOUT_NAME: AUC(0-t) (ng·h/mL)
# value in ng·h/mL; strip the unit string

Field request: AUC(0-t) | item: CNCc1ccc(-c2cc(-c3nc(-c4ccc(S(=O)(=O)C(C)C)cc4)cnc3N)on2)cc1
10100
